log10 T1/2 values for the molecules below.
# Assay Details: Half life required for the release of paracetamol
# Assay type: ADME
Note: values are log10 of T1/2 expressed in min.

Consider the worked cases shown below.
> print(dat)
                           structure.smiles  result.type  numeric.result
1  CC(=O)Nc1ccc(OC(=O)CNC(=O)[C@H](C)N)cc1.O=C(O)C(F)(F)F   log10 T1/2            0.48
2  CC(=O)Nc1ccc(OC(=O)CNC(=O)[C@@H](N)C(C)C)cc1.O=C(O)C(F)(F)F   log10 T1/2            1.20
3  CC(=O)Nc1ccc(OC(=O)CNC(=O)CN)cc1.O=C(O)C(F)(F)F   log10 T1/2           -0.10
4  CC(=O)Nc1ccc(OC(=O)[C@H](C)NC(=O)CN)cc1.O=C(O)C(F)(F)F   log10 T1/2           -0.05
5  CC(=O)Nc1ccc(OC(=O)CNC(=O)[C@@H]2CCCN2)cc1.O=C(O)C(F)(F)F   log10 T1/2            0.30

Consider the molecule `CC(=O)Nc1ccc(OC(=O)[C@H](Cc2ccccc2)NC(=O)CN)cc1.O=C(O)C(F)(F)F` . State its measured log10 T1/2.
0.30

Hello, please tell me recorded log10 T1/2 for this one: `CC(=O)Nc1ccc(OC(=O)CNC(=O)[C@@H](N)Cc2ccccc2)cc1.O=C(O)C(F)(F)F`
1.15

Check the records and state log10 T1/2 for `CC(=O)Nc1ccc(OC(=O)[C@@H](NC(=O)CN)C(C)C)cc1.O=C(O)C(F)(F)F`
1.30

---

# Assay Details: Relative rate constant for release of paracetamol was determined
# Assay type: ADME
Each entry below carries its reported Krelative.
// print number alone

Check out these entries, answers already filled in.
> print(dat)
                           structure.smiles  numeric.result
1  CC(=O)Nc1ccc(OC(=O)[C@H](C)NC(=O)CN)cc1.O=C(O)C(F)(F)F            0.94
2  CC(=O)Nc1ccc(OC(=O)CNC(=O)[C@@H]2CCCN2)cc1.O=C(O)C(F)(F)F            0.41
3  CC(=O)Nc1ccc(OC(=O)[C@H](Cc2ccccc2)NC(=O)CN)cc1.O=C(O)C(F)(F)F             0.4
4  CC(=O)Nc1ccc(OC(=O)[C@@H](NC(=O)CN)C(C)C)cc1.O=C(O)C(F)(F)F            0.04
5  CC(=O)Nc1ccc(OC(=O)CNC(=O)[C@H](C)N)cc1.O=C(O)C(F)(F)F            0.24
6  CC(=O)Nc1ccc(OC(=O)CNC(=O)[C@@H](N)C(C)C)cc1.O=C(O)C(F)(F)F            0.05

Recall and state the measured Krelative for `CC(=O)Nc1ccc(OC(=O)CNC(=O)CN)cc1.O=C(O)C(F)(F)F` .
1

Return the recorded Krelative value; entry: `CC(=O)Nc1ccc(OC(=O)CNC(=O)[C@@H](N)Cc2ccccc2)cc1.O=C(O)C(F)(F)F`
0.06

---

# Assay Details: Rate constant for release of paracetamol was determined
# Format: ADME
Result Type: K obs

> print(dat)
                           structure.smiles                    result
1  CNCC(=O)NCC(=O)Oc1ccc(NC(C)=O)cc1.O=C(O)C(F)(F)F  Too fast to be monitored
2  CC(=O)Nc1ccc(OC(=O)CN(C)C(=O)CN)cc1.O=C(O)C(F)(F)F  Too fast to be monitored
3  CC(=O)Nc1ccc(OC(=O)[C@@H]2CCCN2C(=O)CN)cc1.O=C(O)C(F)(F)F  Too fast to be monitored
